Target: T1, mouse Trop-2 (mouse, UniProt Q8BGV3 25-270, limits assumed)
T1 construct: also called Kactus Cat #TRP-MM121
T1 sequence (looked up): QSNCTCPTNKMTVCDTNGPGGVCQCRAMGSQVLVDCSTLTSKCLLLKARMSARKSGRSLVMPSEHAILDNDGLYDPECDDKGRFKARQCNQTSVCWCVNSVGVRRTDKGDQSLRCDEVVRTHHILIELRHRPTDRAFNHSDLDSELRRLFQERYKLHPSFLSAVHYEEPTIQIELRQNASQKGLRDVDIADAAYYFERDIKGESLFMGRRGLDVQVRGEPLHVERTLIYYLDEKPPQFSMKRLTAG
Assay: ELISA, similar to Table 24
MEASUREMENT TYPE: binding result

Please report the recorded binding result for 10A9-2 (antibody, V domains shown) VH: QSLEESGGDLVQPGASLTLTCKASGFDLNNYAMLWVRQAPGKGLEWIGSIYISGGTTYFASWATGRFAISKTSSTTVTLQMTSLTAADTATYFCARDDGTTSYYLNLWGPGTLVTVSS VL: YDMTQTPASVSAAVGGTVTIKCQASEDIYSLLAWYQQKPGQPPKLLIYGASNLESGVPSRFKGSGSGTEYTLTISDLEADDAATYYCQQAYTIGNIDNAFGGGTEVVVK . no binding

Please report the recorded binding result for 5D4-1 (antibody, V domains shown) VH: QQLEESGGGLVKPEGSLTLTCKGSGFDFSGTYWMWWVRQAPGKGLEWIAPIYVGSGSSTYYASWAKGRFTISSTSSTAVTLQATSLTAADTATYFCARGATNNVFMNYFNLWGPGTLVTVSS VL: FEMTQTPSSVSEPVGGTVTIKCQASEDISSNLGWYQQKPGQPPKLLIYGASTLASGVPSRFKGSGSGTEFTLTISDLEPADAATYYCQTSYYIDDGVNGFGGGTEVVVK . no binding

Please report the recorded binding result for 66A1 (antibody, V domains shown, Rabbit-derived clone; LEM construct: VH + rabbit IgG CH1 + human IgG1 CH2-CH3) VH: QEQLKESGGGLVQPGGSLKLSCKASGFDFNNYGVSWVRQAPGKGLEWIAYIYPAFHNTYYASWVNGRFTISSHNAQNTLYLQLNSLTAADTATYFCARDAGGTDYAYNLWGPGTLVTVSS VL: DVVMTQTPASVEAAVGGTVSINCQASEDIESYLAWYQQKPGQPPKLLIYKASTLASGVSSRFKGSGSGKQFTLTISGVECADAATYYCQQVLTIGNVDNPFGGGSEVVVK . no binding
